# credit: patent US9550782B2

system_under_test: human recombinant adrenergic α2B receptor (Homo sapiens, UniProt P18089)
Construct: expressed in transfected cells; host or cells: CHO-K1
Sequence (P18089 whole entry): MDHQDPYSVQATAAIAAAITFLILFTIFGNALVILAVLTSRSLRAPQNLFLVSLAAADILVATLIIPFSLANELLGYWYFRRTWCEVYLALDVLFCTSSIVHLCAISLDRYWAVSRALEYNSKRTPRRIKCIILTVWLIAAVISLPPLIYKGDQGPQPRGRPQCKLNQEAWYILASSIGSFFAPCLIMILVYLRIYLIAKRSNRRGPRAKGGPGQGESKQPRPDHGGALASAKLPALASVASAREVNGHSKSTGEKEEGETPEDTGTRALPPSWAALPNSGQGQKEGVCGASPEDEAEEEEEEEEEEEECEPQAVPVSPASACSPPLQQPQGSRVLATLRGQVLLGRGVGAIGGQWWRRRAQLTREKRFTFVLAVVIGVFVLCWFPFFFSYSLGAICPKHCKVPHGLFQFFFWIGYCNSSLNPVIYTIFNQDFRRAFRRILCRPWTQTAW
test_description: Radioligand binding, adrenergic α2B ([3H]Rauwolscine)
applied_conditions: 0.03 μM compound, 0.03 µM
reported_metric: Percentage inhibition of ligand binding, Adrenergic α2B (%)
Numeric answer only, unit % assumed.

Please fill in: Percentage inhibition of ligand binding, Adrenergic α2B reported for Cc1ccc2c(c1)c1c(n2CC(C)(O)c2ccc(C)nc2)CN(C)CC1 (stereo not shown) [196b] = −2

Please fill in: Percentage inhibition of ligand binding, Adrenergic α2B reported for Cc1ccc2c(c1)c1c(n2CC(C)(O)c2cccnc2)CNCC1 (stereo not shown) [128b] = 54

Please fill in: Percentage inhibition of ligand binding, Adrenergic α2B reported for Cc1cnc2c(c1)c1c(n2CC(N)c2ccc(C#N)cc2)CCN(C)C1 (single isomer, unassigned) [159b] = 52

Please fill in: Percentage inhibition of ligand binding, Adrenergic α2B reported for Cc1ccc2c(c1)c1c(n2CC(C)(OC(=O)C(C)C)c2cccnc2)CCN(C)C1 (single isomer, unassigned) [146a] = 37

----------
Answer each item with its documented Percentage inhibition of ligand binding, Adrenergic α2B (0.03 μM).
system_under_test: human recombinant adrenergic α2B receptor (Homo sapiens, UniProt P18089)
Construct: expressed in transfected cells; host or cells: CHO-K1
test_description: Radioligand binding, adrenergic α2B ([3H]Rauwolscine)
applied_conditions: compound at 0.03 μM, repeat datapoints each shown, 0.03 µM
Numeric answer only, unit % assumed.

Please fill in: Percentage inhibition of ligand binding, Adrenergic α2B (0.03 μM) reported for CN1CCc2c(c3ccc(C(F)(F)F)cc3n2CC(O)c2cccnc2)C1 (single isomer, unassigned) [40a] = 27

Please fill in: Percentage inhibition of ligand binding, Adrenergic α2B (0.03 μM) reported for CN1CCc2c(c3cc(C(F)(F)F)ccc3n2CC(O)c2cccnc2)C1 (single isomer, unassigned) [59b] = 31

Please fill in: Percentage inhibition of ligand binding, Adrenergic α2B (0.03 μM) reported for Cc1ccc2c(c1)c1c(n2CC(O)c2ccncc2)CCN2CCCCC12 (single isomer, unassigned) [47c] = 53

Please fill in: Percentage inhibition of ligand binding, Adrenergic α2B (0.03 μM) reported for Cc1ccc2c(c1)c1c(n2CC(O)c2ccncc2)CC2CCCCN2C1 (racemic) [75d] = 102

Please fill in: Percentage inhibition of ligand binding, Adrenergic α2B (0.03 μM) reported for CN1CCc2c(c3ccc(C(F)(F)F)cc3n2CC(O)c2cccnc2)C1 (single isomer, unassigned) [40b] = 29

Please fill in: Percentage inhibition of ligand binding, Adrenergic α2B (0.03 μM) reported for CN1CCc2c(c3cc(Cl)ccc3n2CC(O)c2cccnc2)C1 (single isomer, unassigned) [7b] = 74

Please fill in: Percentage inhibition of ligand binding, Adrenergic α2B (0.03 μM) reported for Cc1ccc2c(c1)c1c(n2CC(O)c2ccncc2)CC2CCCN2C1 (single isomer, unassigned) [76c] = 35

Please fill in: Percentage inhibition of ligand binding, Adrenergic α2B (0.03 μM) reported for CN1CCc2c(c3cc(Cl)ccc3n2CC(O)c2cccnc2)C1 (single isomer, unassigned) [7a] = 59

Please fill in: Percentage inhibition of ligand binding, Adrenergic α2B (0.03 μM) reported for CN1CCc2c(c3cc(Cl)ccc3n2CC(C)(O)c2cccnc2)C1 (stereo not drawn) [31b] = 36

Please fill in: Percentage inhibition of ligand binding, Adrenergic α2B (0.03 μM) reported for CN1CCc2c(n(CC(C)(O)c3cccnc3)c3ccc(Cl)cc23)C1 (single isomer, unassigned) [28a] = 96

Please fill in: Percentage inhibition of ligand binding, Adrenergic α2B (0.03 μM) reported for Cc1ccc2c(c1)c1c(n2CC(O)c2cc[n+]([O-])cc2)CCN(C)C1 (single isomer, unassigned) [69b] = 19

Please fill in: Percentage inhibition of ligand binding, Adrenergic α2B (0.03 μM) reported for Cc1ccc2c(c1)c1c(n2CC(C)(O)c2cccnc2)CCNC1 (single isomer, unassigned) [24b] = 29
